The origin of these recorded values is ChEMBL document CHEMBL1201861.

test system: EW-16; test: cells; assay type: functional, cell-based, Homo sapiens; settings: Homo sapiens, EW-16;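 also: growth inhibition of human EW-16 cells, read out as cell viability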
Description: SANGER: Inhibition of human EW-16 cell growth in a cell viability assay.
Known IC50 of a selection of compounds

compound	IC50
C#Cc1cccc(Nc2ncnc3cc(OCCOC)c(OCCOC)cc23)c1 [ERLOTINIB]	> 2 µM
Nc1ccn([C@@H]2O[C@H](CO)[C@@H](O)C2(F)F)c(=O)n1 [GEMCITABINE]	< 0.004 µM
COc1cc2c(Nc3ccc(NC(=O)c4ccccc4)cc3)ncnc2cc1OCCCN1CCOCC1	3.23 µM
Nc1cccc2c1CN(C1CCC(=O)NC1=O)C2=O (stereo not given) [LENALIDOMIDE]	> 5 µM
CS(=O)(=O)c1ccc(C(=O)Nc2ccc(Cl)c(-c3ccccn3)c2)c(Cl)c1 [VISMODEGIB]	> 10 µM

* * *

test system: U-698-M; assay: cells; type: functional, cell-based, Homo sapiens; details: Homo sapiens, U-698-M
Description: SANGER: Inhibition of human U-698-M cell growth in a cell viability assay.

molecule	target or system	IC50
COc1cc(N2CCN(C)CC2)ccc1Nc1ncc2c(n1)N(C)c1ccccc1C(=O)N2C	U-698-M	> 8 µM
N[C@@H](CSC(c1ccccc1)(c1ccccc1)c1ccccc1)C(=O)O [S-TRITYL-L-CYSTEINE]	U-698-M	> 5.12 µM
COc1cc2ncn(-c3cc(OCc4ccccc4S(C)(=O)=O)c(C#N)s3)c2cc1OC [GSK-319347A]	U-698-M	> 5 µM
Cc1ccc(-c2c(C(=O)CCl)n(CCCO)c3ncnc(N)c23)cc1	U-698-M	> 4 µM
O=C(O)c1ccc(-c2c[nH]c3ncc(-c4ccccc4)cc23)cc1C1CCCC1 [GSK-650394]	U-698-M	> 16 µM

* * *

system: MIA PaCa-2; test: cells; type: functional, cell-based, Homo sapiens; settings: Homo sapiens, MIA PaCa-2;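 also: growth inhibition of MIA PaCa-2 cells, read out with a cell viability assay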
Description: SANGER: Inhibition of human MIA-PaCa-2 cell growth in a cell viability assay.
Known IC50 of a selection of compounds

molecule smiles	IC50
Cc1cc([N+](=O)[O-])ccc1NS(=O)(=O)c1cc(Cl)ccc1Cl	601 nM
CS(=O)(=O)c1ccc(C(=O)Nc2ccc(Cl)c(-c3ccccn3)c2)c(Cl)c1	> 10000 nM
O=C(O)c1ccc(-c2c[nH]c3ncc(-c4ccccc4)cc23)cc1C1CCCC1	7080 nM
CCC/C=C/C=C/C(=O)O[C@H]1/C(=C/C(=O)OC)C[C@H]2C[C@H]([C@@H](C)O)OC(=O)C[C@H](O)C[C@@H]3C[C@H](OC(C)=O)C(C)(C)[C@](O)(C[C@@H]4C/C(=C/C(=O)OC)C[C@H](/C=C/C(C)(C)[C@]1(O)O2)O4)O3	> 8 nM
COc1cccc2c1C(=O)c1c(O)c3c(c(O)c1C2=O)C[C@@](O)(C(=O)CO)C[C@@H]3O[C@H]1C[C@H](N)[C@H](O)[C@H](C)O1	34.2 nM
N#Cc1c(O)c2c(-c3ccc(-c4ccccc4O)cc3)csc2[nH]c1=O	> 1020 nM

* * *

tested on: LB647-SCLC; test: cells; type: functional, cell-based, Homo sapiens; conditions: Homo sapiens, LB647-SCLC;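 also: cell growth inhibition, read out by a viability assay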
Description: SANGER: Inhibition of human LB647-SCLC cell growth in a cell viability assay.
Known IC50 of a selection of compounds

compound	relation operator	IC50, µM
Oc1ccc2ccccc2c1SSc1c(O)ccc2ccccc12	=	7.3
COc1cc2ncn(-c3cc(OCc4ccccc4S(C)(=O)=O)c(C#N)s3)c2cc1OC [GSK-319347A]	>	5

* * *

tested on: A204; assay: cells; assay type: functional, cell-based, Homo sapiens; conditions: Homo sapiens, A204
Description: SANGER: Inhibition of human A204 cell growth in a cell viability assay.
Structures can show the parent of a compound that is named as a salt.
Known IC50 of a selection of compounds

compound	IC50
C=C(c1ccc(C(=O)O)cc1)c1cc2c(cc1C)C(C)(C)CCC2(C)C	> 8 µM
CS(=O)(=O)c1ccc(C(=O)Nc2ccc(Cl)c(-c3ccccn3)c2)c(Cl)c1	> 10 µM
Nc1cccc2c1CN(C1CCC(=O)NC1=O)C2=O (stereo not given) [LENALIDOMIDE]	> 5 µM
O=C(O)c1ccc(-c2c[nH]c3ncc(-c4ccccc4)cc23)cc1C1CCCC1	> 16 µM
COC1=CC(c2cc3ccccc3[nH]2)=N/C1=C\c1[nH]c(C)cc1C [OBATOCLAX MESYLATE]	1.6 µM
